Origin of measurements: patent US9550792B2

target: CDK2/A (Homo sapiens); construct: purchased; experiment: Inhibitory activity to CDK2 (FRET); type: biochemical; conditions: 1 × 10^−6 mol/L
OBSERVED_PROPERTY: CDK2 inhibition % (1 × 10^−6 mol/L) (%)
Note: unit % is implicit; provide only the numeric part.

Which CDK2 inhibition % (1 × 10^−6 mol/L) value belongs to CN1CCN(Cc2ccc(NC(=O)c3n[nH]cc3Nc3ncnc4cc[nH]c34)cc2)CC1 [Compound I-17] ? 65.96

* * *

tested on: Candida parapsilosis
MIC vs 4 µg/mL: less than gives 1.0; not less than gives 0.0.

[
  {
    "COMPOUND": "CN1CCN(Cc2ccc(NC(=O)c3n[nH]cc3Nc3ncnc4sccc34)cc2)CC1 [Compound I-1]",
    "ANSWER_LABEL": 1.0
  },
  {
    "COMPOUND": "CN1CCN(Cc2ccc(NC(=O)c3n[nH]cc3Nc3ncnc4[nH]ccc34)cc2)CC1 [Compound I-11]",
    "ANSWER_LABEL": 0.0
  },
  {
    "COMPOUND": "Cc1cc2c(Nc3c[nH]nc3C(=O)Nc3ccc(CN4CCN(C)CC4)cc3)ncnc2[nH]1 [Compound I-13]",
    "ANSWER_LABEL": 1.0
  },
  {
    "COMPOUND": "Cc1cc2c(Nc3c[nH]nc3C(=O)Nc3ccc(CN4CCN(C)CC4)cc3)nccc2s1 [Compound I-27]",
    "ANSWER_LABEL": 1.0
  },
  {
    "COMPOUND": "CN1CCN(Cc2ccc(NC(=O)c3n[nH]cc3Nc3ncnc4ccsc34)cc2)CC1 [Compound I-9]",
    "ANSWER_LABEL": 0.0
  }
]

Below 4 µg/mL on MIC? Entry CN1CCN(Cc2ccc(NC(=O)c3n[nH]cc3Nc3ncnc4ccoc34)cc2)CC1 [Compound I-23] 0.0

* * *

target: Aurora A (Homo sapiens, UniProt O14965); construct: purchased; assay: Inhibitory activity to Aurora A (FRET); assay type: biochemical; conditions: 1 × 10^−6 mol/L
Sequence (O14965 whole entry): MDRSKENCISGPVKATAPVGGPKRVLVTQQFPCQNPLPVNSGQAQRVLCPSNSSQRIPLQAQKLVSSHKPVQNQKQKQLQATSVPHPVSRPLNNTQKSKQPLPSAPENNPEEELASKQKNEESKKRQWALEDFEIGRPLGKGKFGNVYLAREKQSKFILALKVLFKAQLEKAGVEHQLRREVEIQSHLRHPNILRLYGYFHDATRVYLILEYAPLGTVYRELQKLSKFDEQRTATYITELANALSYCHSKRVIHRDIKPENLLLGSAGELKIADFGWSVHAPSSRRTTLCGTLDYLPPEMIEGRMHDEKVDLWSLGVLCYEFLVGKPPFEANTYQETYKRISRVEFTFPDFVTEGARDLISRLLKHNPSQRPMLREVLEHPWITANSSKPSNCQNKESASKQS
OBSERVED_PROPERTY: Aurora A inhibition % (1 × 10^−6 mol/L) (%)
Note: unit % is implicit; provide only the numeric part.

[
  {
    "MOLECULAR_STRING": "Cc1csc2ncnc(Nc3c[nH]nc3C(=O)Nc3ccc(CN4CCN(C)CC4)cc3)c12",
    "NUMERIC_VALUE": 58.62
  },
  {
    "MOLECULAR_STRING": "Cc1cc2ncnc(Nc3c[nH]nc3C(=O)Nc3ccc(CN4CCOCC4)cc3)c2[nH]1",
    "NUMERIC_VALUE": 60.72
  }
]

Which Aurora A inhibition % (1 × 10^−6 mol/L) value belongs to `Cc1cc2ccnc(Nc3c[nH]nc3C(=O)Nc3ccc(CN4CCOCC4)cc3)c2[nH]1` ? 60.73

* * *

target: Aurora A (Homo sapiens); construct: purchased; test: Inhibitory activity to Aurora A (FRET); assay type: biochemical; conditions: read-out: Aurora A inhibition % (1 × 10^−6 mol/L)
Everything with inhibition at 1 µM lower than 60% is no; everything else, including exactly 60%, is yes.

Example results:
[
  {
    "COMPOUND": "O=C(Nc1ccc(CN2CCOCC2)cc1)c1n[nH]cc1Nc1ncnc2ccsc12",
    "ANSWER_LABEL": "no"
  },
  {
    "COMPOUND": "CN1CCN(Cc2ccc(NC(=O)c3n[nH]cc3Nc3nccc4ccsc34)cc2)CC1",
    "ANSWER_LABEL": "yes"
  },
  {
    "COMPOUND": "O=C(Nc1ccc(CN2CCOCC2)cc1)c1n[nH]cc1Nc1nccc2ccoc12",
    "ANSWER_LABEL": "no"
  }
]

Confirm if inhibition at 1 µM reported for the compound O=C(NC1CCNCC1)c1n[nH]cc1NC(=O)c1c(Cl)cccc1Cl [AT-7519, reference compound] is 60% or above. no
